B1: tRNA (parent)
chain: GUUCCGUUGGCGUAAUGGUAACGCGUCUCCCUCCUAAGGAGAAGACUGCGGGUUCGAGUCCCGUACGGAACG

Variants of: B1
Assay: yeast fitness relative to wild type (ratio to wild type); higher = fitter; tRNA-Arg(CCU), competitive growth, 37 C, YPD
Fewer inactive variants are shown than the library holds.
Label Criterion met when yeast fitness >= 0.7; otherwise Criterion not met.

mutant_code | label_class
U3G C5G A20C | Criterion not met
C11G C31U | Criterion not met
C5G A14U C27U A42U A43U U47C | Criterion not met

Lookup: Check the entry A21C C34U : does yeast fitness equal or exceed 0.7?
Found: Criterion not met

Lookup: Check the entry U13C C29U C55U : does yeast fitness equal or exceed 0.7?
Found: Criterion not met

Lookup: Check the entry C11A C46U G48A C55U U59A : does yeast fitness equal or exceed 0.7?
Found: Criterion not met

Lookup: Check the entry C5U G18A A37C C61U : does yeast fitness equal or exceed 0.7?
Found: Criterion not met

Lookup: Check the entry G17A G63C : does yeast fitness equal or exceed 0.7?
Found: Criterion not met

Lookup: Check the entry C5U A37G C62G G68C : does yeast fitness equal or exceed 0.7?
Found: Criterion not met

Lookup: Check the entry C11A U26C C29G C31U G48A : does yeast fitness equal or exceed 0.7?
Found: Criterion not met

Lookup: Check the entry C5U C33U A65G : does yeast fitness equal or exceed 0.7?
Found: Criterion not met

Lookup: Check the entry G12C C29G : does yeast fitness equal or exceed 0.7?
Found: Criterion not met
